Molecular target: Metabotropic glutamate receptor 1 (Rattus norvegicus)
Sequence (P23385 whole entry): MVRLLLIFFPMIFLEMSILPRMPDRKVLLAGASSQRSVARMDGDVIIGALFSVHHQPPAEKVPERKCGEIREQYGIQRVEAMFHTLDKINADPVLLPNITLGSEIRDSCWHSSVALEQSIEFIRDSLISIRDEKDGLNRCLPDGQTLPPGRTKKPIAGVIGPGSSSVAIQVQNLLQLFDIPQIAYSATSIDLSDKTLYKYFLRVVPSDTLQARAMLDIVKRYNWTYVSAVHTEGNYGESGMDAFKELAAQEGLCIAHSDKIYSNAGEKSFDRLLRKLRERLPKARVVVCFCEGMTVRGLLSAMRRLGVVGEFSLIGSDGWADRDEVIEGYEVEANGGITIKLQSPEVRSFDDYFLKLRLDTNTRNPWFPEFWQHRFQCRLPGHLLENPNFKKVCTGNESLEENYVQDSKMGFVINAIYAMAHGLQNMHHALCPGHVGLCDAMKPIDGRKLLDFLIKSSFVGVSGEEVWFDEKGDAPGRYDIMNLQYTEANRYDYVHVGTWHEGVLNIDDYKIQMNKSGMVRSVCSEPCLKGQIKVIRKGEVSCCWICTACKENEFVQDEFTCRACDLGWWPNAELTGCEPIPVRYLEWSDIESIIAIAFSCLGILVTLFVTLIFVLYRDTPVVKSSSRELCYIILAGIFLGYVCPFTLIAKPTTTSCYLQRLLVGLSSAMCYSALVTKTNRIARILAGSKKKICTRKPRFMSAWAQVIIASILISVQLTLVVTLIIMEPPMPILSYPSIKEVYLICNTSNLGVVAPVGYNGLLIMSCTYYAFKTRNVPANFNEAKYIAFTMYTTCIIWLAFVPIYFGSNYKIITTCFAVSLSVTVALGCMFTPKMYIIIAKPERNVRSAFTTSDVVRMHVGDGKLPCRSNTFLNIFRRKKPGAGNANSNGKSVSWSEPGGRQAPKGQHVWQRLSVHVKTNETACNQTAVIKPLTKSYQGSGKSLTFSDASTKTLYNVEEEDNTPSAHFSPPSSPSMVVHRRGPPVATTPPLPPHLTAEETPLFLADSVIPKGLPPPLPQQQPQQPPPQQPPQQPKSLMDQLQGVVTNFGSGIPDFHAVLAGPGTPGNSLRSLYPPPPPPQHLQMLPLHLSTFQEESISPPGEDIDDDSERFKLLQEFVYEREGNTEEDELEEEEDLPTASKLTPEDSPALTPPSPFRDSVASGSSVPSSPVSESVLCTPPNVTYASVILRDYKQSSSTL
Assay: In vitro inhibitory concentration required against rat mGluR1a in CHO cells using the CDP-DAG accumulation method
Type: cell-based
ASSAY READOUT: pIC50
By convention, pIC50 is the negative base-10 log of a molar concentration.

# pIC50 of CCCOC(=O)c1c(C)c(C(=O)OC(C)(C)C)c(C)n1C(=O)OC(C)(C)C = 5.64

// pIC50 value for CCCOC(=O)c1c(C)c(C(=O)OC(C)(C)C)c(C)n1C : 6.00

###

Target: Metabotropic glutamate receptor 1 (Rattus norvegicus)
Assay: In vitro inhibition of rat metabotropic glutamate receptor 1 in CHO cells using the CDP-DAG accumulation method.
Assay type: cell-based
ASSAY READOUT: pIC50
Give only the number. pIC50 is defined as minus log10 of concentration in molar units.

Recorded pIC50 for CCCOC(=O)c1[nH]c(Cl)c(C(=O)OC(C)C(C)(C)C)c1C (configuration not stated) on Metabotropic glutamate receptor 1 (Rattus norvegicus) was 6.80

// compound CCCOC(=O)c1[nH]cc(C(=O)OC(C)(C)C)c1C , assay Metabotropic glutamate receptor 1 (Rattus norvegicus), pIC50 value: 7.12

The compound CCCOC(=O)c1[nH]c(COC(C)=O)c(C(=O)OC(C)(C)C)c1C , when measured on Metabotropic glutamate receptor 1 (Rattus norvegicus), yielded pIC50 of 5.57

Value (pIC50, Metabotropic glutamate receptor 1 (Rattus norvegicus)) for record Cc1c(C(=O)OC(C)(C)C)c[nH]c1C(=O)OCc1ccco1 = 5.92

Tested system Metabotropic glutamate receptor 1 (Rattus norvegicus); pIC50 recorded for Cc1c(C(=O)OC(C)C(C)(C)C)c[nH]c1C(=O)Oc1ccncn1 (configuration not stated) was 5.84

pIC50 for Metabotropic glutamate receptor 1 (Rattus norvegicus) with input C=CCOC(=O)Cn1c(C)c(C(=O)OC(C)(C)C)c(C)c1C(=O)OCCC equals 4.90

Bench note, Metabotropic glutamate receptor 1 (Rattus norvegicus): Cc1c(C(=O)OC(C)C(C)(C)C)c[nH]c1C(=O)OC(C)(C)C (configuration not stated) , pIC50 reads 7.77

pIC50 of CCCOC(=O)c1[nH]c(C(=O)Sc2ccccn2)c(C(=O)OC(C)(C)C)c1C , assay on Metabotropic glutamate receptor 1 (Rattus norvegicus), is 5.49

Measured on Metabotropic glutamate receptor 1 (Rattus norvegicus), CCCOC(=O)c1[nH]cc(C(=O)OC(C)C(C)(C)C)c1C (configuration not stated) has a documented pIC50 of 8.40

Value sought: pIC50, system Metabotropic glutamate receptor 1 (Rattus norvegicus), item Cc1c(C(=O)OC(C)(C)C)c[nH]c1C(=O)OCC1CC1 . Result: 7.32

Reading of pIC50 for CCCOC(=O)c1[nH]c(C)c(C(=O)OC(C)C(C)(C)C)c1C (configuration not stated) with Metabotropic glutamate receptor 1 (Rattus norvegicus): 4.80

pIC50 value, target or system Metabotropic glutamate receptor 1 (Rattus norvegicus), for Cc1c(C(=O)OC(C)(C)C)c[nH]c1C(=O)Sc1ccccn1 : 5.52
